Where these numbers come from: patent US20260217651A1

Test system: SD rats; note: test concentration or dose not given here
PROCEDURE_DETAILS: animal or person
Format: in vivo, rat
PROTOCOL_CONDITIONS: rat, in vivo, iv
MEASURED_PROPERTY: Sedation Duration

Task: So what does the record say about Sedation Duration for CCOC(=O)N(Cc1ccsc1)N1CCN(c2cc(C(C)C)c(O)c(C(C)C)c2)CC1 [Cpd-125] ?
Output: 53.93 min

Task: Request the reported Sedation Duration associated with CCOC(=O)N(c1cccc(Cl)c1)N1CCN(c2cc(C(C)C)c(O)c(C(C)C)c2)CC1 [Cpd-61]
Output: 89.98 to 162.23 min

Task: State the recorded Sedation Duration for this entry: CC(C)OC(=O)N(c1ccccc1)N1CCN(c2cc(C(C)C)c(O)c(C(C)C)c2)CC1 [Cpd-52]
Output: 28.53 to 94.30 min

Task: Looking for the measured Sedation Duration of CCOC(=O)N(c1ccccc1)N1CCN(c2cc(C(C)C)c(O)c([C@@H](C)C3CC3)c2)CC1 [Cpd-105] , can you help?
Output: 50.17 to 52.20 min

Task: Given CCCOc1ccc(N(C(=O)OCC)N2CCN(c3cc(C(C)C)c(O)c(C(C)C)c3)CC2)cc1 [Cpd-99] , state its recorded Sedation Duration.
Output: 67.73 to 88.57 min

Task: Please give the measured Sedation Duration for this molecule: CCC(=O)N(c1ccccc1)N1CCN(c2cc(C(C)C)c(O)c(C(C)C)c2)CC1 [Cpd-46]
Output: 12.95 min

Task: Which Sedation Duration value is on record for CCOC(=O)N(c1ccc(OC(C)C)cc1)N1CCN(c2cc(C(C)C)c(O)c(C(C)C)c2)CC1 [Cpd-100] ?
Output: 62.20 to 114.60 min

Task: Please look up its Sedation Duration: CCC(=O)N(c1ccccc1)C1CCN(c2cc(C(C)C)c(O)c([C@H](C)C3CC3)c2)CC1 [Cpd-18]
Output: 26.77 to 47.53 min

Task: // Sedation Duration lookup, key: CCOC(=O)N(c1ccccc1)N1CCN(c2cc(C(C)C)c(O)c([C@H](C)C3CC3)c2)CC1 [Cpd-59]
Output: 37.27 to 47.68 min

Task: Look up Sedation Duration: CCOC(=O)N(c1ccc(OC)cc1)N1CCN(c2cc(C(C)C)c(O)c([C@@H](C)C3CC3)c2)CC1 [Cpd-107]
Output: 34.37 to 73.58 min

Task: I am curious: what Sedation Duration value has been reported for CC(C)c1cc(N2CCC(C(=O)OC(C)(C)C)CC2)cc([C@H](C)C2CC2)c1O [Cpd-85] ?
Output: 5.05 to 15.13 min

Task: For CC(C)c1cc(N2CCC(CC(=O)OC(C)(C)C)CC2)cc([C@H](C)C2CC2)c1O [Cpd-81] , what is its reported Sedation Duration?
Output: 27.22 to 57.86 min

Task: Look up Sedation Duration for this molecule: COC(=O)CN(c1ccccc1)C1CCN(c2cc(C(C)C)c(O)c(C(C)C)c2)CC1 [Cpd-10]
Output: 47.22 to 66.70 min

Task: Return reported Sedation Duration; argument: COC(=O)C1CCN(c2cc(C(C)C)c(O)c([C@H](C)C3CC3)c2)CC1 [Cpd-84-1]
Output: 5.72 to 10.28 min

Task: Fill blank: measured Sedation Duration of the molecule CC(C)c1cc(N2CCC(C(=O)OC(C)(C)C)CC2)cc([C@H](C)C2CC2)c1O [Cpd-85-1] is ____.
Output: 20.97 to 44.48 min

Task: What does the data say about its Sedation Duration? Entry: CCOC(=O)N(c1cccc(C#N)c1)N1CCN(c2cc(C(C)C)c(O)c(C(C)C)c2)CC1 [Cpd-95]
Output: 54.33 min

Task: Query: Sedation Duration; subject: CCOC(=O)N(c1ccc(Cl)cc1)N1CCN(c2cc(C(C)C)c(O)c([C@H](C)C3CC3)c2)CC1 [Cpd-73]
Output: 44.83 to 119.62 min

* * *

Tested on: SD rats; note: test concentration or dose not given here
PROCEDURE_DETAILS: animal or person
Type: in vivo, rat
PROTOCOL_CONDITIONS: rat, in vivo, iv
Would you kindly list Sedation Duration for each of these compounds?
All answers are understood in min, so give the number only.

Task: # get_value(readout='Sedation Duration', item= CCCC(=O)N(c1ccccc1)C1CCN(c2cc(C(C)C)c(O)c(C(C)C)c2)CC1 [Cpd-13] )
Output: 41.57

Task: Form field: reported Sedation Duration of CCOC(=O)N(c1ccc(C)cc1)N1CCN(c2cc(C(C)C)c(O)c([C@H](C)C3CC3)c2)CC1 [Cpd-74]
Output: 69.23

* * *

Tested on: SD rats; note: test concentration or dose not given here
PROCEDURE_DETAILS: animal or person
Assay type: in vivo, rat
PROTOCOL_CONDITIONS: rat, in vivo, iv
Decide using Sedation Duration: a value greater than or equal to 80 min is satisfied, a smaller one is not satisfied.

Task: Does Sedation Duration meet or surpass 80 min for CCOC(=O)N(c1ccc(OCC(C)C)cc1)N1CCN(c2cc(C(C)C)c(O)c(C(C)C)c2)CC1 [Cpd-104] ?
Output: satisfied

Task: Is the recorded value of Sedation Duration equal to or greater than 80 min for this compound? CCC(=O)N(C1CC1)C1CCN(c2cc(C(C)C)c(O)c(C(C)C)c2)CC1 [Cpd-5]
Output: not satisfied

Task: # check: Sedation Duration of CCOC(=O)C1(c2cccs2)CCN(c2cc(C(C)C)c(O)c(C(C)C)c2)CC1 [Cpd-24] is greater than or equal to 80 min
Output: not satisfied

Task: Check the entry COc1ccc(C2(C(=O)OC(C)C)CCN(c3cc(C(C)C)c(O)c(C(C)C)c3)CC2)cc1 [Cpd-123] : does Sedation Duration equal or exceed 80 min?
Output: not satisfied

Task: Has CCOC(=O)N(c1ccc(C)cc1)N1CCN(c2cc(C(C)C)c(O)c(C(C)C)c2)CC1 [Cpd-66] a recorded Sedation Duration greater than or equal to 80 min?
Output: satisfied

* * *

System: SD rats; note: test concentration or dose not given here
PROCEDURE_DETAILS: animal or person
Format: in vivo, rat
PROTOCOL_CONDITIONS: rat, in vivo, iv
MEASURED_PROPERTY: Sedation Duration

Task: Using the record for COC(=O)CCC1CCN(c2cc(C(C)C)c(O)c([C@H](C)C3CC3)c2)CC1 [Cpd-82] , report its Sedation Duration.
Output: 3.67 to 13.02 min

Task: Fill in: Sedation Duration of CCOC(=O)N(c1cccc(C)c1)N1CCN(c2cc(C(C)C)c(O)c([C@H](C)C3CC3)c2)CC1 [Cpd-70] is ___
Output: 48.32 to 106.60 min

Task: Which measured Sedation Duration value corresponds to COC(=O)N(c1ccccc1)C1CCN(c2cc(C(C)C)c(O)c(C(C)C)c2)CC1 [Cpd-3] ?
Output: 24.65 to 38.02 min

Task: I have this compound here, CC(C)OC(=O)C1(c2ccccc2)CCN(c2cc(C(C)C)c(O)c(C(C)C)c2)CC1 [Cpd-26] , and I need its recorded Sedation Duration.
Output: 26.52 to 182.97 min

Task: Consider the compound shown here: CCOC(=O)C1(c2ccc(Cl)cc2Cl)CCN(c2cc(C(C)C)c(O)c(C(C)C)c2)CC1 [Cpd-28] What is its recorded Sedation Duration?
Output: 31.98 to 218.72 min

Task: Return reported Sedation Duration; argument: COC(=O)CN1CC=C(c2cc(C(C)C)c(O)c([C@H](C)C3CC3)c2)CC1 [Cpd-86]
Output: 16.40 to 19.62 min

Task: Fill blank: measured Sedation Duration of the compound COC(=O)CC1CCN(Cc2cc(C(C)C)c(O)c([C@H](C)C3CC3)c2)CC1 [Cpd-77] is ____.
Output: 5.00 to 22.33 min

Task: Recorded Sedation Duration of CCOC(=O)C1(c2cccc(OC)c2)CCN(c2cc(C(C)C)c(O)c(C(C)C)c2)CC1 [Cpd-39] , please.
Output: 34.33 to 39.48 min

Task: I'd like to know its Sedation Duration. The compound in question is CCOC(=O)N(c1cccc(Cl)c1)N1CCN(c2cc(C(C)C)c(O)c([C@@H](C)C3CC3)c2)CC1 [Cpd-106]
Output: 98.82 to 103.67 min

Task: // Sedation Duration lookup, key: COC(=O)C1CCN(c2cc(C(C)C)c(O)c([C@H](C)C3CC3)c2)CC1 [Cpd-84]
Output: 18.08 to 35.02 min

Task: Dear colleague, I am looking for the recorded Sedation Duration of the following compound: CCOC(=O)N(c1ccc(OC)c(OC)c1)N1CCN(c2cc(C(C)C)c(O)c(C(C)C)c2)CC1 [Cpd-96]
Output: 86.20 to 295.93 min

Task: Sedation Duration for COC(=O)N(c1ccccc1)N1CCN(c2cc(C(C)C)c(O)c(C(C)C)c2)CC1 [Cpd-45] ?
Output: 21.22 to 30.92 min

Task: Given the compound CCOC(=O)N(c1ccc(Cl)cc1)N1CCN(c2cc(C(C)C)c(O)c(C(C)C)c2)CC1 [Cpd-65] , what is its reported Sedation Duration?
Output: 101.42 to 123.97 min

Task: Dear colleague, I am looking for the recorded Sedation Duration of the following compound: CCOC(=O)N(c1ccc(SC)cc1)N1CCN(c2cc(C(C)C)c(O)c(C(C)C)c2)CC1 [Cpd-97]
Output: 31.60 to 83.28 min

Task: Quick one: Sedation Duration for CCOC(=O)N(c1cccc(C)c1)N1CCN(c2cc(C(C)C)c(O)c(C(C)C)c2)CC1 [Cpd-62] ?
Output: 55.48 to 85.02 min

Task: What Sedation Duration value was documented for this compound, COC(=O)CC1CCN(c2cc(C(C)C)c(O)c([C@H](C)C3CC3)c2)CC1 [Cpd-80] ?
Output: 10.17 to 28.53 min

Task: Field request: Sedation Duration | item: CCOC(=O)N(c1ccc(F)cc1)N1CCN(c2cc(C(C)C)c(O)c(C(C)C)c2)CC1 [Cpd-64]
Output: 26.92 to 42.58 min

Task: Entry under review: CCOC(=O)N(c1ccccc1)N1CCN(c2cc(C(C)C)c(O)c(C(C)C3CC3)c2)CC1 (stereo not drawn) [Cpd-53] . Reported Sedation Duration?
Output: 27.75 to 167.40 min
